- Tested on: LEGO organoid PTN (PTEN-/-; TP53-/-; NF1-/-)
- experiment: bioluminescence (viable cell) signal fold change after vs before treatment, normalised to DMSO (ratio); higher = more tumour cell growth / less inhibition
- measurementSetup: 10 µM; treatment time 6 days
We use 1 as the dividing line for bioluminescence: on or above the line is Met, below is Not met.

Examples from the recorded data:
compound	qualitativeLabel
Cc1nc2c([nH]1)CCN(C(=O)c1ccc(NC(=O)c3ccccc3-c3ccccc3)cc1)c1ccccc1-2.Cl [Conivaptan hydrochloride]	Not met
C=CC(=O)Nc1cc(Nc2nccc(-c3cn(C)c4ccccc34)n2)c(OC)cc1N(C)CCN(C)C [Osimertinib]	Not met
FC(F)(F)C(Cl)Br (stereo unspecified) [Anestan]	Met

Given the entry CC(C)(S)[C@@H](N)C(=O)O [d-penicillamin] , answer whether its bioluminescence meets or surpasses 1. Met

Given the entry OCCN1CCN(CCCN2c3ccccc3Sc3ccc(Cl)cc32)CC1 [Perphenazine] , answer whether its bioluminescence meets or surpasses 1. Met

Given the entry C=C/C=C/C[C@@H](C)[C@@H](O)[C@H]1C(=O)N[C@@H](CC)C(=O)N(C)CC(=O)N(C)[C@@H](CC(C)C)C(=O)N[C@@H](C(C)C)C(=O)N(C)[C@@H](CC(C)C)C(=O)N[C@@H](C)C(=O)N[C@H](C)C(=O)N(C)[C@@H](CC(C)C)C(=O)N(C)[C@@H](CC(C)C)C(=O)N(C)[C@@H](C(C)C)C(=O)N1C [Voclosporin] , answer whether its bioluminescence meets or surpasses 1. Not met
